- target: Delta-type opioid receptor (Mus musculus, UniProt P32300)
- Sequence (P32300 whole entry): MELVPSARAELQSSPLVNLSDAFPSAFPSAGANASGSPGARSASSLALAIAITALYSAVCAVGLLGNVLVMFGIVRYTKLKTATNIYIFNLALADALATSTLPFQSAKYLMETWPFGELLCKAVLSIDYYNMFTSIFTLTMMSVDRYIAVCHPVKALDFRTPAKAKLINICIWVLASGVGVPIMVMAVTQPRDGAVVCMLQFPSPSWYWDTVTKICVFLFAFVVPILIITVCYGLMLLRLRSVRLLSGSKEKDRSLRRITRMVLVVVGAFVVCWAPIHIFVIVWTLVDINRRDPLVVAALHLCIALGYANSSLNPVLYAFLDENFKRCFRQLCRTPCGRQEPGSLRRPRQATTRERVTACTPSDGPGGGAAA
- protocol_notes: Binding affinity towards mouse Opioid receptor delta 1 expressed in CHO cells of chinese hamster ovary was determined using [3H]-[…] as radioligand
- Assay type: cell-based
measured_metric: pKi
Scale note: pKi = -log10(concentration in M).

query: Kindly state the measured pKi obtained for CC(C)C[C@H](NC(=O)[C@H](CCc1ccccc1)NC(=O)CNC(=O)CNC(=O)[C@@H](N)Cc1ccc(O)cc1)C(=O)N[C@@H](CCCN=C(N)N)C(=O)N[C@@H](CCCN=C(N)N)C(=O)N[C@H](C)C(=O)N[C@@H](CCCN=C(N)N)C(=O)N1CCC[C@H]1C(=O)N[C@@H](CCCCN)C(N)=O with Delta-type opioid receptor (Mus musculus, UniProt P32300).
result: 5.25

###

The entries below are paired with their reported pKi.
- target: UniProtKB P34975
- protocol_notes: Binding affinity towards rat Opioid receptor kappa 1 expressed in CHO cells of chinese hamster ovary was determined using [3H]diprenorphine as radioligand
- Assay type: cell-based
Scale note: pKi = -log10(concentration in M).

smiles_record	pKi
CC(C)C[C@H](NC(=O)[C@@]1(NC(=O)CNC(=O)CNC(=O)[C@@H](N)Cc2ccc(O)cc2)CCc2ccccc2C1)C(=O)N[C@@H](CCCN=C(N)N)C(=O)N[C@@H](CCCN=C(N)N)C(=O)N[C@H](C)C(=O)N[C@@H](CCCN=C(N)N)C(=O)N1CCC[C@H]1C(=O)N[C@@H](CCCCN)C(N)=O	9.05
CC(C)C[C@H](NC(=O)[C@]1(NC(=O)CNC(=O)CNC(=O)[C@@H](N)Cc2ccc(O)cc2)CCc2ccccc2C1)C(=O)N[C@@H](CCCNC(=N)N)C(=O)N[C@@H](CCCNC(=N)N)C(=O)N[C@H](C)C(=O)N[C@@H](CCCNC(=N)N)C(=O)N1CCC[C@H]1C(=O)N[C@@H](CCCCN)C(N)=O	8.02
CC(C)C[C@H](NC(=O)[C@H](Cc1ccccc1)NC(=O)CNC(=O)CNC(=O)[C@@H](N)Cc1ccc(O)cc1)C(=O)N[C@@H](CCCN=C(N)N)C(=O)N[C@@H](CCCN=C(N)N)C(=O)N[C@H](C)C(=O)N[C@@H](CCCN=C(N)N)C(=O)N1CCC[C@H]1C(=O)N[C@@H](CCCCN)C(N)=O	8.05

query: Sample CC(C)C[C@H](NC(=O)C1(NC(=O)CNC(=O)CNC(=O)[C@@H](N)Cc2ccc(O)cc2)Cc2ccccc2C1)C(=O)N[C@@H](CCCN=C(N)N)C(=O)N[C@@H](CCCN=C(N)N)C(=O)N[C@H](C)C(=O)N[C@@H](CCCN=C(N)N)C(=O)N1CCC[C@H]1C(=O)N[C@@H](CCCCN)C(N)=O — what was its pKi?
result: 7.58

###

- target: Kappa-type opioid receptor (Rattus norvegicus)
- Sequence (P34975 whole entry): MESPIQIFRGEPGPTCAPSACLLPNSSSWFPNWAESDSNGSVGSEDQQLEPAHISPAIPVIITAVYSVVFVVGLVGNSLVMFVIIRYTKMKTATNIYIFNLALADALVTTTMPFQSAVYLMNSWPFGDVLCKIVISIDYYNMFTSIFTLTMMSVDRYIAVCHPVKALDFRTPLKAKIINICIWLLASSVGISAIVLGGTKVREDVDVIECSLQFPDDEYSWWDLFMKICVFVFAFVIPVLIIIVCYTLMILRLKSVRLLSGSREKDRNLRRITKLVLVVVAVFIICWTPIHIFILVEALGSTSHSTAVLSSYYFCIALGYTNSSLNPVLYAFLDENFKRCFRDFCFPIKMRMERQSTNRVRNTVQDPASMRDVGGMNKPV
- protocol_notes: Inhibition of Forskolin-Stimulated Adenylyl Cyclase in CHO cells expressing Opioid receptor kappa 1 at 10 uM relative to 100 nM Dyn A-(1-13)NH(2)
- Assay type: functional, cell-based
measured_metric: Max response (%)
Answer format: numeric, % implied, no suffix.

query: Sample CC(C)C[C@H](NC(=O)[C@@](C)(Cc1ccccc1)NC(=O)CNC(=O)CNC(=O)[C@@H](N)Cc1ccc(O)cc1)C(=O)N[C@@H](CCCN=C(N)N)C(=O)N[C@@H](CCCN=C(N)N)C(=O)N[C@H](C)C(=O)N[C@@H](CCCN=C(N)N)C(=O)N1CCC[C@H]1C(=O)N[C@@H](CCCCN)C(N)=O — what was its Max response?
result: 100
